Where do the numbers come from? From patent US6465440B2.

# Test system: v-Ha-ras TG.AC mice
# ASSAY_TEXT: Individual deoxyribonucleosides versus combination on UV-induced tumorigenesis in v-Ha-ras TG.AC mice
# Assay type: in vivo, mouse
# APPLIED_CONDITIONS: UV 1.25 kJ/m^2 on days 0, 6, 8 and 11; 4 mg/ml (each) in propylene glycol beginning 30 minutes after irradiation; vehicle 1.8
Each record here notes measured Papillomas/mouse at the end of 8 weeks.
ENDPOINT: Papillomas/mouse at the end of 8 weeks (Papillomas/mouse)

- CHEMICAL_STRUCTURE: "Nc1ncnc2c1ncn2[C@H]1C[C@H](O)[C@@H](CO)O1"
  ENDPOINT: "Papillomas/mouse at the end of 8 weeks"
  UNIT_STRING: "Papillomas/mouse"
  MEASURED: 0.67
- CHEMICAL_STRUCTURE: "Nc1ccn([C@H]2C[C@H](O)[C@@H](CO)O2)c(=O)n1"
  ENDPOINT: "Papillomas/mouse at the end of 8 weeks"
  UNIT_STRING: "Papillomas/mouse"
  MEASURED: 0.25
- CHEMICAL_STRUCTURE: "Nc1nc2c(ncn2[C@H]2C[C@H](O)[C@@H](CO)O2)c(=O)[nH]1"
  ENDPOINT: "Papillomas/mouse at the end of 8 weeks"
  UNIT_STRING: "Papillomas/mouse"
  MEASURED: 1.0
- CHEMICAL_STRUCTURE: "Cc1cn([C@H]2C[C@H](O)[C@@H](CO)O2)c(=O)[nH]c1=O"
  ENDPOINT: "Papillomas/mouse at the end of 8 weeks"
  UNIT_STRING: "Papillomas/mouse"
  MEASURED: 1.6
